Target: blue mussel phenoloxidase (PO)
Experiment: Blue mussel PO inhibition assay
Assay type: biochemical, Mytilus edulis
Conditions: purified enzyme, 25 °C, 10 mM L-DOPA, 50 mM phosphate buffer pH 6.8, 2 h incubation, triplicate
Please note: IC50 exactly at 1000 nM is Condition not met. Only values below 1000 nM get Condition met.

Here's what some known entries look like.
[
  {
    "CHEMICAL STRUCTURE": "O=C(NCCc1c[nH]cn1)/C(Cc1cc(Br)c(O)c(Br)c1)=N/O",
    "CATEGORY LABEL": "Condition not met"
  },
  {
    "CHEMICAL STRUCTURE": "O=C(NC1CCCCC1)/C(Cc1cc(Br)c(O)c(Br)c1)=N/O",
    "CATEGORY LABEL": "Condition not met"
  },
  {
    "CHEMICAL STRUCTURE": "O=C(NCCc1cc(Br)c(O)c(Br)c1)/C(Cc1cc(Br)c(O)c(Br)c1)=N/O",
    "CATEGORY LABEL": "Condition met"
  },
  {
    "CHEMICAL STRUCTURE": "O=C(NCCc1c[nH]c2ccccc12)/C(Cc1cc(Br)c(O)c(Br)c1)=N/O",
    "CATEGORY LABEL": "Condition not met"
  }
]

hey, is IC50 for O=C(NCCc1cc(Cl)c(O)c(Cl)c1)/C(Cc1cc(Cl)c(O)c(Cl)c1)=N/O lower than 1000 nM or not?
Condition not met

hey, is IC50 for O=C(NCCc1cc(I)c(O)c(I)c1)/C(Cc1cc(I)c(O)c(I)c1)=N/O lower than 1000 nM or not?
Condition not met

---

Attribute: IC50
Target: blue mussel phenoloxidase (PO)
Experiment: Blue mussel PO inhibition assay
Format: biochemical, Mytilus edulis
Details: purified enzyme, 25 °C, 10 mM L-DOPA, 50 mM phosphate buffer pH 6.8, 2 h incubation, triplicate
Don't forget the unit after the number, please.

Here is how some compounds turned out for IC50.
[
  {
    "CHEMICAL STRUCTURE": "CO/N=C(\\Cc1cc(Br)c(OC)c(Br)c1)C(=O)NCCc1cc(Br)c(OC)c(Br)c1",
    "VALUE": "18.9 µM"
  },
  {
    "CHEMICAL STRUCTURE": "CCCCCCNC(=O)/C(Cc1cc(Br)c(O)c(Br)c1)=N/O",
    "VALUE": "16.3 µM"
  },
  {
    "CHEMICAL STRUCTURE": "CC(C)CNC(=O)/C(Cc1cc(Br)c(O)c(Br)c1)=N/O",
    "VALUE": "17.2 µM"
  }
]

Please look at the following compound next.
# query: IC50 | item O=C(NCCc1ccccc1)/C(Cc1cc(Br)c(O)c(Br)c1)=N/O | system: blue mussel phenoloxidase (PO)
22.7 µM
